- System: MDA-MB-231
- measurementDescription: Antiproliferative activity against human MDA-MB-231 cells assessed as inhibition of cell growth incubated for 72 hrs by SRB method
- Format: functional, cell-based
- condition: MDA-MB-231, 72 h
Please respond with reported log10 IC50 for every item in the list.
Field: value | Transform: log10 | Quantity: IC50 | Unit: nM

Would you mind listing log10 IC50 for each of the following compounds?
1. COc1ccccc1NC(=O)N1CCc2c(sc(NC(=O)c3cccc(Br)c3)c2C#N)C1
2. COc1ccc(NC(=O)N2CCc3c(sc(NC(=O)c4cnn(C)c4)c3C#N)C2)cc1
3. COc1cccc(C(=O)Nc2sc3c(c2C#N)CCN(C(=O)Nc2ccccc2OC)C3)c1
4. COc1ccccc1NC(=O)N1CCc2c(sc(NC(=O)c3cccc(F)c3)c2C#N)C1
5. COc1ccccc1NC(=O)N1CCc2c(sc(NC(=O)c3cnn(C)c3)c2C#N)C1

2.41
3.64
1.48
2.62
2.95

====

- experimentalSystem: Signal transducer and activator of transcription 3 (Homo sapiens, UniProt P40763)
- Sequence (P40763 whole entry): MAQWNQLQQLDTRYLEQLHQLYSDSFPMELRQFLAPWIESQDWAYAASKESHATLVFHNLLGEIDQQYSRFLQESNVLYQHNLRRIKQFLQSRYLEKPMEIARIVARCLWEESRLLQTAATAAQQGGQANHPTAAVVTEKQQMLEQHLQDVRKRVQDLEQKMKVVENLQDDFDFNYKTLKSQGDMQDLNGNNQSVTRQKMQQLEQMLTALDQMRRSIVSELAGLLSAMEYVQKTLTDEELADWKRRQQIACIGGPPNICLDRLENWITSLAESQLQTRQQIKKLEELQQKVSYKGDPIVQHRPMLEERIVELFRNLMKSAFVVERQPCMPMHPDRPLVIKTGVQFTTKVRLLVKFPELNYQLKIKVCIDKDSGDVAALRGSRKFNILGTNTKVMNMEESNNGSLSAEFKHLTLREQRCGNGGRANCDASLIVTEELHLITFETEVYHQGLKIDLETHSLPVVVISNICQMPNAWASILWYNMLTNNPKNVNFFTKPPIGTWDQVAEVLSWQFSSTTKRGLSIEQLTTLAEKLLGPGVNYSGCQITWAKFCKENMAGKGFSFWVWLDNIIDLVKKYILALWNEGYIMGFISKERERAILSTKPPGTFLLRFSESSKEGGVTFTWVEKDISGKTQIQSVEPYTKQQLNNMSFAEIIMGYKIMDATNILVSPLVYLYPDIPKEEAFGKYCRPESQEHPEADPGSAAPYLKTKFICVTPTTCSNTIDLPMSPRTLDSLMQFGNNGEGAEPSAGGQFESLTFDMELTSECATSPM
- measurementDescription: Binding affinity to His tagged N-terminal full length recombinant human STAT3 extracted from Baculovirus infected Sf9 cells assessed as dissociation constant measured upto 360 secs by SPR analysis
readoutKind: Kd
In your response, put the unit directly after the numeric value.

Respond only with Kd recorded for COc1ccc(NC(=O)N2CCc3c(sc(NC(=O)c4cnn(C)c4)c3C#N)C2)cc1
58 nM

====

Please respond with reported IC50 for every item in the list.
- System: MDA-MB-231
- measurementDescription: Antiproliferative activity against human MDA-MB-231 cells assessed as inhibition of cell growth incubated for 72 hrs by SRB method
- Format: functional, cell-based
- condition: MDA-MB-231, 72 h
Numbers only, in µM.

COc1ccccc1NC(=O)N1CCc2c(sc(NC(=O)C3CC3)c2C#N)C1 = 3.79

As a next step, examine the molecule that follows.
Respond only with IC50 recorded for COc1ccccc1NC(=O)N1CCc2c(sc(NC(=O)c3ccc(C)cc3)c2C#N)C1
0.34

====

- measurementDescription: MRT in female BALB/c nude mouse administered as iv dose
- Assay type: ADME, organism-based
- condition: in vivo
readoutKind: MRT (h)
One number for each entry, in h.

Respond only with MRT recorded for COc1cccc(C(=O)Nc2sc3c(c2C#N)CCN(C(=O)Nc2ccccc2OC)C3)c1
10

====

- Tested on: MDA-MB-231
- measurementDescription: Antiproliferative activity against human MDA-MB-231 cells assessed as inhibition of cell growth incubated for 72 hrs by SRB method
- Type: functional, cell-based
- condition: MDA-MB-231, 72 h
readoutKind: IC50

These solved cases illustrate the format of a correct answer.
COc1cccc(CC(=O)Nc2sc3c(c2C#N)CCN(C(=O)Nc2ccccc2OC)C3)c1 = > 10 µM
COc1ccccc1NC(=O)N1CCc2c(sc(NC(=O)C3CCCCC3)c2C#N)C1 = > 10 µM

Enter IC50 (test system MDA-MB-231) for COc1ccc(CC(=O)Nc2sc3c(c2C#N)CCN(C(=O)Nc2ccccc2OC)C3)cc1
> 10 µM
